Test system: Dermatophagoides pteronyssinus
Test: Inhibitory activity against Cysteinyl protease was evaluated by method A in experiment 1
assay-metric: k obs / 1 (M⁻¹ s⁻¹)

Past entries and their recorded results:
INSERT INTO measurements (substance_smiles, unit_string, data_value) VALUES
  ('CC(C)C[C@@H](/C=C/S(C)(=O)=O)NC(=O)[C@H](C)NC(=O)[C@@H](NC(=O)OC(C)(C)C)C(C)C', 'M⁻¹ s⁻¹', 1100),
  ('CCCC[C@H](NC(=O)[C@H](C)NC(=O)[C@@H](NC(=O)c1ccccc1)C(C)C)C(=O)COC(=O)c1ccccc1', 'M⁻¹ s⁻¹', 370000),
  ('CC(C)C[C@@H](/C=C/S(=O)(=O)c1ccccc1)NC(=O)[C@H](C)NC(=O)[C@@H](NC(=O)OC(C)(C)C)C(C)C', 'M⁻¹ s⁻¹', 6400);

a: CC(C)C[C@@H](/C=C/S(=O)(=O)Cc1ccccc1)NC(=O)[C@H](C)NC(=O)[C@@H](NC(=O)OC(C)(C)C)C(C)C
b: CCCC[C@H](NC(=O)[C@H](C)NC(=O)[C@@H](NC(=O)c1ccccc1)C(C)C)C(=O)COC(=O)c1c(C(F)(F)F)cccc1C(F)(F)F
Pick the one with the larger k obs / 1: a vs b Refer to your chosen item by its label in the answer.
b

a: CCOC(=O)/C=C/[C@H](CC(C)C)NC(=O)[C@H](C)NC(=O)[C@@H](NC(=O)OC(C)(C)C)C(C)C
b: CCOC(=O)/C=C/[C@H](CC(C)C)NC(=O)[C@H](C)NC(=O)[C@@H](NC(=O)c1ccccc1)C(C)C
// select label with min value of measured k obs / 1 from [ a , b ] Refer to your chosen item by its label in the answer.
a
